# METHOD NOTES: qHTS Assay for Spectroscopic Profiling in 4-MU Spectral Region
# ASSAY SETUP: compound autofluorescence, 340/450 nm, 4-MU equivalents
Among all 59,000 compounds or so, about 6,200 (11%) were called active. Another 9% or so got no clear call; they are omitted. Cut-off read from the data, not from the text of the source: active = max dye-equivalent concentration above about 10 nM; inconclusive = mostly about 1.1 nM to 9.6 nM; inactive = weaker than that. What follows is part of a selection rich in actives, with near analogues and random picks from the rest.
The categories you may choose from are y (active), n (inactive)

Query string: Recorded call for `Cc1ccnc(NC(=O)c2ccc(NC(=O)c3ccco3)cc2)c1` ?
Result string: n

Query string: I'd appreciate the recorded outcome for `CC(=O)OCc1cc2cc(C)ccc2[nH]c1=O` from this test.
Result string: n

Query string: Could you check what this test reported for `COc1ccc(C(=O)OCC(=O)c2ccc(C)c(S(=O)(=O)N3CCOCC3)c2)cc1OC` ?
Result string: n

Query string: Answer briefly: the call reported for `COc1ccc(C(=O)NCc2cn3ccccc3n2)cc1` in this assay.
Result string: n

Query string: # fetch the recorded call for `O=C(c1ccco1)N1CCC[C@@]2(CCN(Cc3nccs3)C2)C1` here
Result string: n

Query string: Returns: the outcome recorded for `CC1(CCC(=O)OC2CCCCC2)OCCO1` in this assay.
Result string: n

Query string: How did this test come out for `CCOC(=O)c1cc(C)sc1NC(=O)C1CCC1` ?
Result string: n

Query string: How did this test come out for `Cc1cc(Cl)ccc1OCC(=O)Oc1c(Cl)c(Cl)c(Cl)c(Cl)c1Cl` ?
Result string: n

Query string: Would you mind telling me which call this test gave `CCn1c(=N)c(C(=O)NCCCOC)cc2c(=O)n3cccc(C)c3nc21` ?
Result string: y

Query string: Which outcome did this test record for the compound `CCOC(=O)c1cc2cc(C)ccc2[nH]1` ?
Result string: n

Query string: For `COc1ccc(CNC(=O)C2CCN(S(=O)(=O)N3CCOCC3)CC2)cc1` , what call appears in the results of this test?
Result string: n

Query string: Field: outcome | Entry: `CCOCCCNC(=O)c1c[nH]c2cc(C)ccc2c1=O`
Result string: n

----------
# METHOD NOTES: qHTS Assay for Spectroscopic Profiling in 4-MU Spectral Region
# ASSAY SETUP: compound autofluorescence, 340/450 nm, 4-MU equivalents
# Excerpt: NIH Molecular Libraries Screening Centers Network [MLSCN] NIH Chemical Genomics Center [NCGC] […] While the most informative fluorescent profiling data set is obtained by performing a full excitation and emission scan of each well by using a monochromator-based plate reader, such an approach is practical only on a very limited scale as scanning each well requires long time. […]
About 6,200 (11%) of roughly 59,000 compounds were called active. Another 9% or so got no clear call; they are omitted. Cut-off read from the data, not from the text of the source: active = max dye-equivalent concentration above about 10 nM; inconclusive = mostly about 1.1 nM to 9.6 nM; inactive = weaker than that. The list comes from a sample in which actives are over-represented; it also holds close analogues and randomly drawn compounds.
Answer with one of the outcomes given here: active, inactive

Query string: Can you look up the reported call for `CCc1nc(N2CCN(c3nc(C)cc(C)n3)CC2)c2oc3ccccc3c2n1` for me?
Result string: inactive

Query string: Returns: the outcome recorded for `COc1ccc(OC)c(NC(=O)CSc2nc(N)c(-c3ccccc3)c(=O)[nH]2)c1` in this assay.
Result string: inactive

Query string: // outcome(item) with item = `CCOC(=O)c1sc(NC(=S)n2cc(C)cn2)c(C(=O)OCC)c1C`
Result string: inactive

Query string: Write down the call the test reported for this compound. Item: `Cc1ccc2c(c1)c1ncnc(N3CCc4ccccc4C3)c1n2C`
Result string: active

Query string: Given `CCN(CC(=O)Nc1ccc2c(c1)OCCO2)Cc1cc(=O)oc2cc(C)c(C)cc12` , state the outcome it received in this test.
Result string: inactive

Query string: Can you look up the reported call for `Cc1nc2cnc(N3CCNCC3)nc2n(CCc2ccccc2)c1=O` for me?
Result string: active

Query string: Record request — test call for `CN(C)C(=O)c1ccc(-c2cncnc2NC2CCNCC2)cc1`
Result string: inactive

Query string: Hi, do you know how `O=C(Nc1ccon1)c1sc2ccccc2c1Cl` came out in this test?
Result string: inactive

Query string: Hi team, can someone confirm the assay call for `CCOc1ccc(Nc2oc(Cc3ccccc3)nc2C#N)cc1` ?
Result string: inactive

Query string: For `CCOc1ccc2nc(NCCNS(=O)(=O)c3ccccc3)c(C#N)cc2c1` , what call appears in the results of this test?
Result string: active

Query string: Recorded test outcome, item `Cc1cc(=O)n2c3c(cccc13)CCC2`
Result string: inactive

Query string: State the result this test recorded for `O=C(O)c1cccc(S(=O)(=O)NCCO)c1` .
Result string: inactive

Query string: Given CCC(C)(C)NC(=O)C(c1cccn1C)N(Cc1ccc(C)cc1)C(=O)Cn1nnc2ccccc21 (centres undefined) , state the outcome it received in this test.
Result string: inactive

Query string: For CC1CCCN(C(=O)Cn2c(=O)oc3ccccc32)C1 (centres undefined) , which call appears in the assay record?
Result string: inactive

Query string: Just curious, what result did `Cn1c(C(=O)NCCN2CCc3ccccc3C2)cc2c(=O)[nH]c3ccccc3c21` get here?
Result string: inactive

Query string: Per the assay record, what outcome was assigned to `COc1ccc(-c2csc(N3CCN(Cc4ccc5c(c4)OCO5)CC3)n2)cc1` ?
Result string: inactive

Query string: Write down the call the test reported for this compound. Item: `CCC(=O)Nc1nc2ccccc2n1Cc1ccccc1C`
Result string: inactive

Query string: # lookup: test call for `COc1ccc(CNC2CCCCC2)cc1`
Result string: inactive

Query string: Which result was noted for this compound in the test: `CCNC(=O)c1c(O)c2cccc3c2n(c1=O)CC3`
Result string: active

Query string: Entry CC1(C)C2CCC1(C)C(OC(=O)CCn1ccnc1)C2 (centres undefined) : call = ?
Result string: inactive

Query string: Test call for this compound, please: CCN(CC)CCCN1C(=O)C(=O)/C(=C(/O)c2c(C)nc3ccccn23)C1c1ccc(C)o1 (centres undefined)
Result string: inactive

Query string: Which result was noted for this compound in the test: `CCc1nc(Nc2ccc3nccnc3c2)c2oc3ccccc3c2n1`
Result string: active

Query string: What call does the record list for `COc1c(F)c(F)c(-c2csc(N)n2)c(F)c1F` ?
Result string: active

Query string: How did this test come out for `O=C(NC1CCCCC1)N1CCc2[nH]c3ccccc3c2C1` ?
Result string: inactive

----------
# METHOD NOTES: qHTS Assay for Spectroscopic Profiling in 4-MU Spectral Region
# ASSAY SETUP: compound autofluorescence, 340/450 nm, 4-MU equivalents
The whole screen tested about 59,000 compounds, of which about 6,200 (11%) were called active. About 9% were inconclusive and are not listed. Cut-off read from the data, not from the text of the source: active = max dye-equivalent concentration above about 10 nM; inconclusive = mostly about 1.1 nM to 9.6 nM; inactive = weaker than that. Many of the other results were omitted from the sample, so actives are more common in it than they were.
Output constraint: value belongs to label 1 for active, label 0 for inactive

Query string: Test call for this molecule, please: `O=c1c(-c2cc(F)cc(F)c2)nc2cnc(Oc3ccccc3)nc2n1C[C@H]1CCCO1`
Result string: label 1

Query string: What did this assay record as the result for `Cc1ccc2nc(S(=O)(=O)O)[nH]c2c1` ?
Result string: label 0

Query string: Outcome? `CCOC(=O)c1sc(NC(=O)c2cc(S(=O)(=O)N3CCOCC3)ccc2C)nc1C`
Result string: label 0

Query string: Tell me the assay call for `NC(=S)c1ccc(C(N)=S)o1` please.
Result string: label 0

Query string: Assay outcome for `Cc1onc(-c2ccccc2)c1C(=O)N1CCOCC1` : what was it?
Result string: label 0

Query string: What is the recorded call for this molecule in the test? CCC12CN3CC(CC)(CN(C1)C31C(=O)N(C)c3ccc(C)cc31)C2=O (stereo unspecified)
Result string: label 0

Query string: Tell me the assay call for `COc1cccc(Cn2c(=O)c(-c3cc(F)cc(F)c3)nc3cnc(OC)nc32)c1` please.
Result string: label 0

Query string: What did this assay record as the result for `O=C(Nc1ccc2c(c1)nc1n2CCCCC1)c1cc(S(=O)(=O)N2CCOCC2)ccc1Cl` ?
Result string: label 0

Query string: Per the records of this test, what outcome belongs to `COC(=O)c1ccc(Oc2nc(Nc3ccc(F)cc3)nc(N3CCCC3)n2)cc1` ?
Result string: label 0

Query string: What did the test return for O=C(CSc1nnc(-c2ccco2)n1CC1CCCO1)c1ccccc1 (stereo unspecified) ?
Result string: label 0

Query string: Returns: the outcome recorded for `COc1ccccc1CNc1nc(-c2c(C)noc2C)nc2ccccc12` in this assay.
Result string: label 0

----------
# METHOD NOTES: qHTS Assay for Spectroscopic Profiling in 4-MU Spectral Region
# ASSAY SETUP: compound autofluorescence, 340/450 nm, 4-MU equivalents
# Text: NIH Molecular Libraries Screening Centers Network [MLSCN] NIH Chemical Genomics Center [NCGC] […] While the most informative fluorescent profiling data set is obtained by performing a full excitation and emission scan of each well by using a monochromator-based plate reader, such an approach is practical only on a very limited scale as scanning each well requires long time. […]
In all, about 59,000 compounds went through this assay and about 6,200 (11%) were called active. Roughly 9% stayed inconclusive and do not appear here. Rule as the data show it: active = max dye-equivalent concentration above about 10 nM; inconclusive = mostly about 1.1 nM to 9.6 nM; inactive = weaker than that. Shown is part of a subset that was picked to be rich in actives.
Output constraint: value belongs to Yes (active), No (inactive)

Query string: Query: recorded result category for `Cn1c(=S)c2[nH]c(SCCCc3ccccc3)nc2n(C)c1=O` in this test
Result string: Yes

Query string: Could you kindly confirm the outcome this assay logged for `COCCCN1C(=O)c2ccc(C(=O)Nc3ccc(OC)cc3OC)cc2C1=O` ?
Result string: No

Query string: Would you mind telling me which call this test gave `CC(=O)c1ccc(-n2nnnc2SCC(=O)N2CCN(C(=O)c3ccco3)CC2)cc1` ?
Result string: No

Query string: Record lookup: outcome of this test for COc1ccc(CCN2C(=O)c3[nH]nc(-c4ccccc4O)c3C2c2ccc(C)cc2)cc1OC (centres undefined) ?
Result string: Yes

Query string: Which outcome did this test record for the compound `CCCSc1nc2c(c(=O)[nH]c(=O)n2C)n1CCc1ccccc1` ?
Result string: No

Query string: Tell me the recorded outcome of this test for `COc1ccc(Oc2ncc3nc(C)c(=O)n(-c4ccccc4)c3n2)cc1` .
Result string: No

Query string: Returns: the outcome recorded for `O=c1c(-c2cccs2)nc2cnc(Oc3ccccc3)nc2n1-c1ccccc1` in this assay.
Result string: Yes

Query string: Check the results log: what was the call for `COc1ccc(-n2c(=O)c(-c3cn(C)c4ccccc34)nc3cnc(OC)nc32)cc1` ?
Result string: No

Query string: What did the test return for `COc1ccc(-c2nc3n(c2Br)CCC3)cc1` ?
Result string: No

Query string: Hi, do you know how `COc1ccc(-c2n[nH]c(C)c2-c2ccc(OC)c(OC)c2)c(O)c1` came out in this test?
Result string: No

Query string: Could you kindly confirm the outcome this assay logged for `O=C(c1ccco1)N1CCC2(CC1)CCN(c1ncccn1)CC2` ?
Result string: No

Query string: Which outcome was entered for the compound Cc1ccc(S(=O)(=O)N2CCCC2C(=O)NCc2ccco2)cc1 (centres undefined) in this test?
Result string: No

Query string: Hello, I am checking results. What call was entered for `CS(=O)(=O)N1CCC[C@@]2(CCN(c3ccncc3)C2)C1` ?
Result string: No

Query string: Any idea what this test logged for `Cc1cnc(CNc2ncncc2-c2ccccc2Cl)cn1` ?
Result string: No
